What EC50 was measured for each of the following?
# ASSAYED SYSTEM: recombinant Wee1 protein (Homo sapiens (Human))
# Sequence (P30291 whole entry): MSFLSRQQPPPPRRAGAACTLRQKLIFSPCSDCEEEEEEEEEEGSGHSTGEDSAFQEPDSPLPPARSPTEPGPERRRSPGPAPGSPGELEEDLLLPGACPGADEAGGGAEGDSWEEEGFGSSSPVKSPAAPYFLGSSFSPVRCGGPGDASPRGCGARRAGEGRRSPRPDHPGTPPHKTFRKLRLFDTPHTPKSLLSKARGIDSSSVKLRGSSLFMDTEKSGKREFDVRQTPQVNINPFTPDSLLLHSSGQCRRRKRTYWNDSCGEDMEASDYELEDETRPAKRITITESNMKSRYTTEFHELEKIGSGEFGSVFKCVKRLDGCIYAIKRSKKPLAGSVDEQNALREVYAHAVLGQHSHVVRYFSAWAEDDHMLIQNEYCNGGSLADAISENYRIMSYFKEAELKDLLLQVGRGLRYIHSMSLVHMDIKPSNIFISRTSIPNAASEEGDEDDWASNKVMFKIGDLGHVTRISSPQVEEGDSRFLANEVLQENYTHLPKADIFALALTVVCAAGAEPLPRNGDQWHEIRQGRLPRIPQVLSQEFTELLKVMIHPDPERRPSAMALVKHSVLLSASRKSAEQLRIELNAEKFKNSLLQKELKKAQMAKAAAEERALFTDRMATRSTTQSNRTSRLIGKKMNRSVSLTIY
# METHOD NOTES: Wee1 enzymatic activity inhibition, ADP-Glo luminescence assay
# SETUP CONDITIONS: recombinant Wee1, PolyE4Y1 substrate, 1 h room temperature

MOLECULE: COCCn1c(=O)c2cnc(Nc3ccc(N4CCN(C(=O)c5cc(Cc6n[nH]c(=O)c7ccccc67)ccc5F)CC4)cc3)nc2n1-c1cccc(C(C)(C)O)n1
VALUE MEASURED: 10 to 100 nM
//
MOLECULE: C=CCn1c(=O)c2cnc(Nc3ccc(N4CCN(C(=O)c5cc(Cc6n[nH]c(=O)c7ccccc67)ccc5F)CC4)cc3)nc2n1-c1ccccn1
VALUE MEASURED: 10 to 100 nM

Bench note, recombinant Wee1 protein (Homo sapiens (Human)): entry "Cn1c(=O)c2cnc(Nc3ccc(N4CCN(Cc5ccc(-c6[nH]c7cc(F)cc8c7c6CCNC8=O)cc5)CC4)cc3)nc2n1-c1ccccn1" , its EC50 = 10 to 100 nM
